study.target: human amylin receptor (hAmyR3) (Homo sapiens, UniProt O60896+P30988)
Construct: host or cells: BHK cells (Hollex-1 line: human calcitonin receptor (a) + CRE-Luc), further transfected with human RAMP3
Sequence (P30988 25-474): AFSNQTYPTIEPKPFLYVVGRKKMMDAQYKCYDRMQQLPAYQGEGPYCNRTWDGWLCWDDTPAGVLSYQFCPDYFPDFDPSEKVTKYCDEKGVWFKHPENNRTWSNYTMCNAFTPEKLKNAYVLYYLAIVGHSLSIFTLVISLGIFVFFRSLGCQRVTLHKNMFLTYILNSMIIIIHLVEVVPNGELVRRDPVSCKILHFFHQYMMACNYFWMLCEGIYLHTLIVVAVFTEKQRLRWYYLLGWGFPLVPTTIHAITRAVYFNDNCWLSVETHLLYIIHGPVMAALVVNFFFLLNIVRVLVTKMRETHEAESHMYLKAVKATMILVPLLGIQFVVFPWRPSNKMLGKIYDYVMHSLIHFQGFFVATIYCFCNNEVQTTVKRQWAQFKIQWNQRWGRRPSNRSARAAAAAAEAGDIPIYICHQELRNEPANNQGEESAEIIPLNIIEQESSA
Sequence (O60896 24-148): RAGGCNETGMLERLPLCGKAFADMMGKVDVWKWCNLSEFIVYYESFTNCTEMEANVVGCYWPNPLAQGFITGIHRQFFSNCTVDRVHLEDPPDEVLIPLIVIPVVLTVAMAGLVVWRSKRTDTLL
assay.comment: Human amylin receptor in vitro potency assay (CRE-luciferase reporter, BHK cells);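 also: BHK cells expressing human calcitonin receptor plus RAMP3 (amylin-3 receptor) with a CRE-luciferase reporter, agonist activity read as luminescence from cAMP-driven transcription, 7-point serial dilutions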
Type: cell-based
test.context: Table 4a; BHK hAmyR3/CRE-Luc cells, 3 hours; read-out: Human AmyR3 potency [EC50 (pM)]
Starred links: 1 amine or outer side, 2 acyl side, 3 side chain; linkers in the order of their positions; H or OH if unused. Non-standard residues stand in square brackets, D forms with d. Groups on a side chain read outwards from the residue. *: point of attachment. C20 diacid = O=C(O)CCCCCCCCCCCCCCCCCCC(=O)*; C18 diacid = O=C(O)CCCCCCCCCCCCCCCCC(=O)*; C16 diacid = O=C(O)CCCCCCCCCCCCCCC(=O)*; γGlu = O=C(O)[C@H](CCC(=O)[*:2])N[*:1]; εLys = N[C@@H](CCCCN[*:1])C(=O)[*:2]; Trx = NC[C@H]1CC[C@H](C(=O)O)CC1; AEEA = NCCOCCOCC(=O)O; Aib = CC(C)(N)C(=O)O; Ahx = NCCCCCC(=O)O
So basically: is EC50 under 20 pM? Then Y. Not under? Then N.

substance	discrete.label
HWEGTFTSDVSSYLEEQAAREFIAWLVRGRK([AEEA-AEEA-γGlu-C18 diacid])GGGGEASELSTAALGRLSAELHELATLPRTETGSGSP-NH2 [Compound 0648]	Y
H-H[Aib]EGTFTSDVSSYLEEQAAREFIEWLVRGRK([εLys-AEEA-AEEA-γGlu-Trx-C20 diacid])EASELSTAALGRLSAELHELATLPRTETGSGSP-NH2 [Compound 0438]	N
H-H[Aib]EGTFTSDVSK([AEEA-AEEA-γGlu-C16 diacid])YLEEQAARK([AEEA-AEEA-γGlu-C16 diacid])FIAWLVRGRQEGGGGGASELSTAALGRLSAELHELATLPRTETGSGSP-NH2 [Compound 0575]	Y
H-H[Aib]EGTFTSDVSSYLEEK([AEEA-AEEA-γGlu-C16 diacid])AAREFIAWLVRGRGGGGGEASELSTAALGRLSAELHELATLK([AEEA-AEEA-γGlu-C16 diacid])RTETGSGSP-NH2 [Compound 0397]	Y
H-H[Aib]EGTFTSDK([AEEA-AEEA-γGlu-C16 diacid])SSYLEEQAAREFIAWLVRGRGGGGGASELSTAALGRLSK([AEEA-AEEA-γGlu-C16 diacid])ELHELATLPRTETGSGSP-NH2 [Compound 0292]	N
H-H[Aib]EGTFTSDVSSYLEGQAAK([AEEA-AEEA-γGlu-C20 diacid])EFIAWLVRGRGGGGGGGGGEASELSTAALGRLSAELHELATLPRTETGSGSP-NH2 [Compound 0094]	Y

Problem: Field: below-cutoff. Rule: recorded EC50 strictly less than 20 pM. Subject: H-H[Aib]EGTFTSDVSK([AEEA-AEEA-γGlu-C20 diacid])YLEEQAAREFIAWLVRGRGGGGGEASELSTAALGRLSAELHELATLPRTETGSGSP-NH2 [Compound 0565]
Result: Y

Problem: Field: below-cutoff. Rule: recorded EC50 strictly less than 20 pM. Subject: H-H[Aib]EGTFTSDVSK([AEEA-AEEA-γGlu-C16 diacid])YLEEQAARK([AEEA-AEEA-γGlu-C16 diacid])FIEWLVRGRGEASELSTAALGRLSAELHELATLPRTETGSGSP-NH2 [Compound 0577]
Result: Y

Problem: Field: below-cutoff. Rule: recorded EC50 strictly less than 20 pM. Subject: H[Aib]EGTFTSDVSSYLEEQAARK([AEEA-AEEA-γGlu-C16 diacid])FIAWLVRGK([AEEA-AEEA-γGlu-C16 diacid])GGGEASELSTAALGRLSAELHELATLPRTETGSGSP-NH2 [Compound 0076]
Result: N

Problem: Field: below-cutoff. Rule: recorded EC50 strictly less than 20 pM. Subject: H-H[Aib]EGTFTSDVSK([Ahx-γGlu-γGlu-C16 diacid])YLEEQAARK([Ahx-γGlu-γGlu-C16 diacid])FIEWLVRGAAEASELSTAALGRLSAELHELATLPRTETGSGSP-NH2 [Compound 0630]
Result: N

Problem: Field: below-cutoff. Rule: recorded EC50 strictly less than 20 pM. Subject: H-H[Aib]EGTFTSDVSSYLEGQAAK([AEEA-AEEA-γGlu-Trx-C20 diacid])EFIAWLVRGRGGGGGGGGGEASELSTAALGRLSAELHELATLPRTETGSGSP-NH2 [Compound 0095]
Result: Y

Problem: Field: below-cutoff. Rule: recorded EC50 strictly less than 20 pM. Subject: H-H[Aib]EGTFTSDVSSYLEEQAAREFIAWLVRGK([AEEA-AEEA-γGlu-C16 diacid])GGGGGEASELSTAALGRLSAELHELATLPRTETGK([AEEA-AEEA-γGlu-C16 diacid])GSP-NH2 [Compound 0285]
Result: N

Problem: Field: below-cutoff. Rule: recorded EC50 strictly less than 20 pM. Subject: H-HAEGTFTSDK([AEEA-AEEA-γGlu-C16 diacid])SSYLEEK([AEEA-AEEA-γGlu-C16 diacid])AAREFIEWLVRGRGEASELSTAALGRLSAELHELATLPRTETGSGSP-NH2 [Compound 0475]
Result: N

Problem: Field: below-cutoff. Rule: recorded EC50 strictly less than 20 pM. Subject: H-H[Aib]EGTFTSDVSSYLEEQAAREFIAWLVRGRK([AEEA-AEEA-AEEA-AEEA-γGlu-C18 diacid])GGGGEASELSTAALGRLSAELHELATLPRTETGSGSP-NH2 [Compound 0662]
Result: Y

Problem: Field: below-cutoff. Rule: recorded EC50 strictly less than 20 pM. Subject: H-H[Aib]EGTFTSDVSSYLEEQAARK([AEEA-AEEA-γGlu-C20 diacid])FIAWLVRGGASELSTAALGRLSAELHELATLPRTETGSGSP-NH2 [Compound 0580]
Result: Y
